Hello, the source for this data is a melting point compilation (Tetko et al.; mined from patent text by program, amines drawn as free bases though some values may be those of a salt), in case you need it.

readout_kind: melting point

{"compound": "Cc1c(C#N)ccc(Cl)c1Cl", "value": "78 to 79 °C"}
{"compound": "CC(C)OC(=O)N1CCC(c2nc3ccc(-c4ccc(C(N)=O)c(F)c4)cc3o2)CC1", "value": "178 to 181 °C"}
{"compound": "C=C(C)C(=O)Oc1ccc(S(=O)(=O)Nc2ccccc2)cc1", "value": "101 to 102 °C"}
{"compound": "O=c1[nH]c2c(F)cccc2o1", "value": "131 to 133 °C"}

Give melting point for each listed item.
1. COC(=O)c1cc(NC(=O)c2cc(NC(=O)c3cc(NC(=O)OC(C)(C)C)cn3C)cn2C)cn1C
2. Cc1c(-c2ccc(O)c(F)c2)sc(C=O)c1-c1ccc(O)c(Cl)c1
3. O=c1[nH]c2c(c3ccccc13)c1cc(Cl)ccc1n2CC1CC1

Result:
134 °C
252 to 254 °C
> 300 °C

Can you give me melting point for all of these, one by one?
1. O=C1c2cc(-c3ccc(C(F)(F)F)cc3)ccc2CC1Br (stereo unspecified)
2. O=C(OCCCCl)c1ccc([N+](=O)[O-])cc1[N+](=O)[O-]
3. O=c1cc(N2CCOCC2)oc2c(O)cccc12
4. CC(C)(C=O)C(O)(CCc1ccc(F)cc1)Cn1cncn1 (stereo unspecified)

Result:
1. 105 °C
2. 40 °C
3. 240 to 247 °C
4. 98 °C

// for each compound in input: emit melting point
1. O=C(Nc1c(OCCN(Cc2ccccc2)C(=O)C(F)(F)F)cccc1[N+](=O)[O-])C(F)(F)F
2. CC(=O)c1ccc(Oc2ccc(S(C)(=O)=O)cc2)cc1
3. COc1c(C)cc(-c2cncc(OC3SCC(O)C(O)C3O)c2)cc1C (stereo unspecified)
4. CC(C)c1ccc(Cn2[nH]c(N)cc2=O)cc1

Result:
114 to 115 °C
131 to 132 °C
173 °C
105 °C
